- Tested on: EKVX NSCLC
- Assay Notes: NCI tumour cell line growth inhibition, 48 h
Reported Property: GI50

Study these solved cases before continuing.
INSERT INTO assay_data (compound, reported_property, measured) VALUES
  ('Cn1c(NCC(CN2CCCC2)OC(=O)c2ccccc2)cc(=O)n(C)c1=O (stereo unspecified)', 'GI50', '> 100 µM'),
  ('COc1cc2c3c(n(CCCN4CCCNCC4)c(=O)c2cc1OC)-c1cc2c(cc1C3=O)OCO2', 'GI50', '7.6 µM'),
  ('Oc1ccc(Cc2ccc(O)c(C3CC(c4ccc(Cl)cc4)=NN3)c2)cc1C1CC(c2ccc(Cl)cc2)=NN1 (stereo unspecified)', 'GI50', '3.2 µM'),
  ('CCCOc1ccc(/C=N/Nc2cc(C)nc3ccc(Cl)cc23)cc1', 'GI50', '1.64 µM'),
  ('CCN(CC)CC(O)COc1c(Br)c(Br)c(Br)c2c1OC(C)(C)C2 (stereo unspecified)', 'GI50', '3.04 µM');

Turning to the following compound.
Prompt: GET /values?readout=GI50&item= `CCOC(=O)Nc1ccc2c(c1)N(C(=O)CCN(CC)CC)c1ccccc1S2`
Completion: 74.2 µM
